- MEASUREMENT DESCRIPTION: Pharmacokinetics of caspofungin during continuous venovenous hemodiafiltration (CVVHD)
- Format: in vivo, human
- MEASUREMENT SETUP: human, in vivo, iv, patient 3; 6 h after infusion ended; steady state, CVVHD; HPLC; read-out: Arterial caspofungin concentration
RECORDED METRIC: level at 6 h (ng/mL)
Only the number, expressed in ng/mL, is required.

Given CC[C@H](C)C[C@H](C)CCCCCCCCC(=O)N[C@H]1C[C@@H](O)[C@@H](NCCN)NC(=O)[C@@H]2[C@@H](O)CCN2C(=O)[C@H]([C@H](O)CCN)NC(=O)[C@H]([C@H](O)[C@@H](O)c2ccc(O)cc2)NC(=O)[C@@H]2C[C@@H](O)CN2C(=O)[C@H]([C@@H](C)O)NC1=O , state its recorded level at 6 h.
5630

* * *

- MEASUREMENT DESCRIPTION: Pharmacokinetics of caspofungin during continuous venovenous hemodiafiltration (CVVHD)
- Type: in vivo, human
- MEASUREMENT SETUP: human, in vivo, iv, patient 10; 0.5 h after infusion ended; steady state, CVVHD; HPLC; read-out: Arterial caspofungin concentration
RECORDED METRIC: level at 0.5 h

Given CC[C@H](C)C[C@H](C)CCCCCCCCC(=O)N[C@H]1C[C@@H](O)[C@@H](NCCN)NC(=O)[C@@H]2[C@@H](O)CCN2C(=O)[C@H]([C@H](O)CCN)NC(=O)[C@H]([C@H](O)[C@@H](O)c2ccc(O)cc2)NC(=O)[C@@H]2C[C@@H](O)CN2C(=O)[C@H]([C@@H](C)O)NC1=O [caspofungin] , state its recorded level at 0.5 h.
11200 ng/mL

* * *

- MEASUREMENT DESCRIPTION: Pharmacokinetics of caspofungin during continuous venovenous hemodiafiltration (CVVHD)
- Assay type: in vivo, human
- MEASUREMENT SETUP: human, in vivo, iv, patient 3; 0.5 h after infusion ended; steady state, CVVHD; HPLC; read-out: Arterial caspofungin concentration
RECORDED METRIC: level at 0.5 h (ng/mL)
Only the number, expressed in ng/mL, is required.

Given CC[C@H](C)C[C@H](C)CCCCCCCCC(=O)N[C@H]1C[C@@H](O)[C@@H](NCCN)NC(=O)[C@@H]2[C@@H](O)CCN2C(=O)[C@H]([C@H](O)CCN)NC(=O)[C@H]([C@H](O)[C@@H](O)c2ccc(O)cc2)NC(=O)[C@@H]2C[C@@H](O)CN2C(=O)[C@H]([C@@H](C)O)NC1=O [caspofungin] , state its recorded level at 0.5 h.
8500

* * *

- MEASUREMENT DESCRIPTION: Pharmacokinetics of caspofungin during continuous venovenous hemodiafiltration (CVVHD)
- Format: in vivo, human
- MEASUREMENT SETUP: human, in vivo, iv, patient 9; 24 h after infusion ended; steady state, CVVHD; HPLC; read-out: Arterial caspofungin concentration
RECORDED METRIC: level at 24 h (ng/mL)
Only the number, expressed in ng/mL, is required.

Given CC[C@H](C)C[C@H](C)CCCCCCCCC(=O)N[C@H]1C[C@@H](O)[C@@H](NCCN)NC(=O)[C@@H]2[C@@H](O)CCN2C(=O)[C@H]([C@H](O)CCN)NC(=O)[C@H]([C@H](O)[C@@H](O)c2ccc(O)cc2)NC(=O)[C@@H]2C[C@@H](O)CN2C(=O)[C@H]([C@@H](C)O)NC1=O , state its recorded level at 24 h.
2270
